Reference source for all entries: patent US7932394B2

assayed_system: recombinant human liver GK (Homo sapiens, UniProt P35557)
Sequence (P35557 1-466 isoform P35557-2): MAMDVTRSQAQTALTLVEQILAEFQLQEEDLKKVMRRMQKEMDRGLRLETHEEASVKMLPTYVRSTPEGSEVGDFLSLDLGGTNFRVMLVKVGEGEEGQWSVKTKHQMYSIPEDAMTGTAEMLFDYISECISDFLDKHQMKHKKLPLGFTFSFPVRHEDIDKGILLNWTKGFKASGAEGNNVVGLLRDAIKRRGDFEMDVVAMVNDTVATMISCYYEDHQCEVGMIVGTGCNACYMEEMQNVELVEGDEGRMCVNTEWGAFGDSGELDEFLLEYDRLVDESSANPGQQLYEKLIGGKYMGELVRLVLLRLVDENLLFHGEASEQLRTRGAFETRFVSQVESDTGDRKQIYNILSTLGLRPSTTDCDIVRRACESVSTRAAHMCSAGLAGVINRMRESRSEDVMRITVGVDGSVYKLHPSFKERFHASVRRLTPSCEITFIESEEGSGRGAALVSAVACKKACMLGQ
experiment_description: GK-activating potency: glucokinase activity via Thio-NADH level (G6PDH reporter enzyme)
assay_context: FLAG-GK, 30° C., final glucose concentration 2.5 mM
Procedure: The excellent glucokinase-activating effect of the compounds of formula (I) may be determined by a method described in references (for example, Diabetes, Vol. 45, pp. 1671-1677, 1996), or in accordance with it. […] After the start of the reaction, the increase in the absorbance at 405 nm was measured for 12 minutes at intervals of 30 seconds, and the increase for the first 5 minutes was used for evaluating the compound tested. […]
pEC50: −log10 of the molar value.
observable: pEC50

CCS(=O)(=O)c1ccc(Oc2cc3nc(-c4ccccn4)[nH]c3cc2CNS(C)(=O)=O)cc1 :: 6.31

A: CCS(=O)(=O)c1ccc(Oc2cc3nc(-c4ccccn4)[nH]c3cc2Cc2ccc(F)cc2)cc1
B: CS(=O)(=O)c1ccc(Oc2cc3nc(-c4ccccn4)[nH]c3cc2CN2C(=O)CCC2=O)cc1
Problem: For A and B , which recorded pEC50 is lower? # answer = label of selected item
Result: A
